Origin of measurements: patent US20240059769A1

Biological target: T1, human TSLP (human, UniProt Q969D9 29-159)
T1 construct: also called hTSLP; rhTSLP
Experiment: SPR
Parameter Measured: koff

Q: Data request, read-out koff, for BDG38.081 (antibody, V domains shown, IgG1) VH: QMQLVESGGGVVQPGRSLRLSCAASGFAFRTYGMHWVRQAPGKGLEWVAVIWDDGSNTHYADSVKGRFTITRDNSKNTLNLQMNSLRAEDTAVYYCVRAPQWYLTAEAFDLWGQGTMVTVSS VL: SYVLTQPPSVSVAPGQTARITCGGNMIGAYLVHWYQQKPGQAPLLVIYDDVDRPDRIPERFSGSNSGNTATLTISRVEAGDEADYYCQVWDHNTQQMVFGGGTKLTVL
Ans: 0.000125 s⁻¹

Q: Input BDG38.075 (antibody, V domains shown, IgG1) VH: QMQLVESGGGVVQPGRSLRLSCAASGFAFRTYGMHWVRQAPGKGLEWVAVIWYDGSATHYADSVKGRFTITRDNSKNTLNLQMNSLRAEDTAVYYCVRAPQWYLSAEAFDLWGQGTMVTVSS VL: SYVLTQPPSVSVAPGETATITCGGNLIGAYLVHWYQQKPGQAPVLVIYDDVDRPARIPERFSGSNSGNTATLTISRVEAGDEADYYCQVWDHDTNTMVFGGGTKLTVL
Ans: 2.38e-05 s⁻¹

Q: Now give it for BDG38.082 (antibody, V domains shown, IgG1) VH: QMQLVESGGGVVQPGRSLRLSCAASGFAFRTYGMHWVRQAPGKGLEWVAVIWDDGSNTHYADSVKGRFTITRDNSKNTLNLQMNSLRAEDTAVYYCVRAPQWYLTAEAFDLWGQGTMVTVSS VL: SYVLTQPPSVSVAPGETATITCGGNMIGGYLVHWYQQKPGQAPVLVIYDDVDRPDRIPERFSGSNSGNTATLTISRVEAGDEADYYCQVWDHDTNQVVFGGGTKLTVL too.
Ans: 0.000158 s⁻¹
